- assayed.system: UniProt P49840
- method.summary: GSK3α TR-FRET kinase assay
- Format: biochemical
- experimental.context: 1 nM GSK3α, 4 μM ATP, 30 minute preincubation, Table 16; read-out: GSK3-A TR-FRET BIOCHEMICAL (TR-FRET)
pIC50: −log10 of the molar value.
For each entry below, report its pIC50 value.

Below, 8 compounds whose answers are already recorded.
1) COc1ccc(S(=O)(=O)N2CCCC3(CC2)C2=C(CC(C)(C)CC2=O)Nc2n[nH]cc23)cc1 (stereo not drawn) ... ≥ 7.00
2) C[C@@H]1C[C@H](C)C[C@@]2(C1)C1=C(CC(C)(C)CC1=O)Nc1n[nH]cc12 ... 6.00 to 7.00
3) CCC1(c2cccc(-c3cc(OC)ncc3F)c2)C2=C(CC(C)(C)CC2=O)Nc2n[nH]cc21 (stereo not drawn) ... ≥ 7.00
4) CC[C@]1(c2ccccc2)C2=C(C[C@@]3(CCN(C)C3=O)CC2=O)Nc2n[nH]cc21 ... 5.30 to 6.00
5) CC1(C)CC(=O)C2=C(C1)Nc1n[nH]cc1C21CCC(C(F)(F)F)CC1 (stereo not drawn) ... ≥ 7.00
6) CC[C@]1(c2cccc(-c3ccnc(C(F)F)c3)c2)C2=C(CC(C)(C)CC2=O)Nc2n[nH]cc21 ... ≥ 7.00
7) CC1(C)CC(=O)C2=C(C1)Nc1n[nH]cc1C21CN(S(=O)(=O)CC2CC2)C1 ... ≥ 7.00
8) CC1(C)CC(=O)C2=C(C1)Nc1n[nH]cc1[C@@]21CO[C@H](c2ccccc2)C1 ... ≥ 7.00

Now consider the entry below.
// lookup pIC50 for CCn1nc(C)c(S(=O)(=O)N2CCC3(CC2)C2=C(CC(C)(C)CC2=O)Nc2n[nH]cc23)c1C
6.00 to 7.00

###

- assayed.system: GSK3b (GST-full length GSK3b) (Homo sapiens (Human))
- method.summary: GSK3b TR-FRET kinase assay
- Format: biochemical
- experimental.context: 1 nM GSK3b, 2 μM ATP, 30 minute preincubation; geometric mean; read-out: GSK3-B TR-FRET BIOCHEMICAL (TR-FRET); GMean; IC50
- Description: TR-FRET Assay: The assay was performed in a white, 384 well, low volume, flat bottom plate (Grenier). After a 30 minute preincubation in assay buffer with the indicated concentration of compound, the kinase activity was initiated by the addition of the substrates. […] After 60 min at room temperature the plate was read on Envision plate reader using Ex: 340 nm, Em: 615 nm and […]. The normalized 665/615 Signal ratio versus log compound concentration was analyzed by XLFIT to yield IC50 values.
pIC50: −log10 of the molar value.
property.measured: pIC50

1) CC1(C)CC(=O)C2=C(C1)Nc1n[nH]cc1[C@]2(C)c1cccc(-c2ccccc2)c1 [Compound 801367] ... 6.00 to 7.00

Look up pIC50 for the entries below, preserving their order.
1. CCC1(c2cccc(-c3ccncc3)c2)C2=C(CC(C)(C)CC2=O)Nc2n[nH]cc21 (stereo not shown) [Compound 791271]
2. CC1(C)CC(=O)C2=C(C1)Nc1n[nH]c(C3(C(F)(F)F)CC3)c1C21CCc2c(F)cccc21 (stereo not shown) [Compound 816839]
3. CC[C@@]1(c2cccc(C(F)(F)F)c2)C2=C(CC3(CCCC3)CC2=O)Nc2n[nH]cc21 [Compound 801311]
4. CCC1(c2cccc(N3CCCC3)c2)C2=C(CC(C)(C)NC2=O)Nc2n[nH]c(C(F)(F)F)c21 (stereo not shown) [Compound 947860]
5. CC[C@]1(c2cccc(N3CCCCC3)c2)C2=C(CC(C)(C)NC2=O)Nc2n[nH]c(C(F)(F)F)c21 [Compound 949178]

6.00 to 7.00
5.30 to 6.00
≥ 7.00
≥ 7.00
5.30 to 6.00

Provide each entry's pIC50 from the list below.
1. CCC1(c2cccc(Br)c2)C2=C(CC(C)(C)CC2=O)Nc2n[nH]c(C(F)(F)F)c21 (stereo not shown) [Compound 801324]
2. CC1(C)CC(=O)C2=C(C1)Nc1n[nH]c(CC(F)(F)F)c1C21CCc2c(F)cccc21 (stereo not shown) [Compound 816837]

1. ≥ 7.00
2. 6.00 to 7.00

Give pIC50 for each of the items listed below.
1. CC[C@@]1(c2cccc(N3CCCCC3)c2)C2=C(CC(C)(C)CC2=O)Nc2n[nH]cc21 [Compound 810371]
2. CCC1(c2cccc(-c3ccncc3F)c2)C2=C(CC(C)(C)NC2=O)Nc2n[nH]cc21 (stereo not shown) [Compound 947874]

1. < 5.30
2. 5.30 to 6.00

###

Assignment: determine reported pIC50 for the given molecules.
- assayed.system: GSK3α (GST-full length GSK3α) (Homo sapiens (Human))
- Sequence (P49840 whole entry): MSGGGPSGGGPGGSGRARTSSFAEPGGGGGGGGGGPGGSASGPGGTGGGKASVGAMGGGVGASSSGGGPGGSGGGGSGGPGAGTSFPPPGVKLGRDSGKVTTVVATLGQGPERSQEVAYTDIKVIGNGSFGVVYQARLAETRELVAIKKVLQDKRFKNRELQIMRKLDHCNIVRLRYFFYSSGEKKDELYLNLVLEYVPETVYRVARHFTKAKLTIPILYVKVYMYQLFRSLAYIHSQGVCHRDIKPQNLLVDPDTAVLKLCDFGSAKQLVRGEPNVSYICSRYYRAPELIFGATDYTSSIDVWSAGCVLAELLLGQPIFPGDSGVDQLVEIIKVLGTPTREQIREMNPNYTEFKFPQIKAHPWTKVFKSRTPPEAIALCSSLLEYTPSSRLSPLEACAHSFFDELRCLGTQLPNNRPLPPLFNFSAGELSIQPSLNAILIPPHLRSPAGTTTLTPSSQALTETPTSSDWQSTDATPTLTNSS
- method.summary: GSK3α TR-FRET kinase assay
- Type: biochemical
- experimental.context: 1 nM GSK3α, 4 μM ATP, 30 minute preincubation; read-out: GSK3-A TR-FRET BIOCHEMICAL (TR-FRET); IC50
pIC50: −log10 of the molar value.

1. CCC1(c2cccc(-c3c(C)nn(C)c3C)c2)C2=C(CC(C)(C)NC2=O)Nc2n[nH]cc21 (stereo not drawn) ... ≥ 7.00
2. CCC1(c2ccccc2)C2=C(CSCC2=O)Nc2n[nH]cc21 (stereo not drawn) ... 5.30 to 6.00

Consider the additional molecule presented here.
Fill in the blank: the reported pIC50 of CC[C@]1(c2cccc(-c3cnn(C)c3C)c2)C2=C(CC(C)(C)NC2=O)Nc2n[nH]cc21 is ____.
≥ 7.00

###

- assayed.system: GSK3α (GST-full length GSK3α) (Homo sapiens (Human))
- method.summary: GSK3α TR-FRET kinase assay
- Format: biochemical
- experimental.context: 1 nM GSK3α, 4 μM ATP, 30 minute preincubation; geometric mean; read-out: GSK3-A TR-FRET BIOCHEMICAL (TR-FRET); GMean; IC50
pIC50: −log10 of the molar value.
property.measured: pIC50

Known pIC50 results, listed for orientation:
1) CCC1(c2cccc(C(F)(F)F)c2)C2=C(CCN(c3cncnc3)C2=O)Nc2n[nH]cc21 (centres unmarked) [Compound 948380] ... 6.00 to 7.00
2) CCC1(c2cccc(C(F)(F)F)c2)C2=C(CCN(c3ccccc3C)C2=O)Nc2n[nH]cc21 (centres unmarked) [Compound 949128] ... ≥ 7.00
3) CC1(C)CC(=O)C2=C(C1)Nc1n[nH]cc1C2(C)c1cccc(-c2ccccc2)c1 (centres unmarked) [Compound 789513] ... 6.00 to 7.00
4) CC[C@@]1(c2cccc(-c3ccncc3F)c2)C2=C(CC(C)(C)NC2=O)Nc2n[nH]c(C)c21 [Compound 947821] ... ≥ 7.00
5) CCC1(c2cccc(-c3cnn4c3CCCC4)c2)C2=C(CC(C)(C)NC2=O)Nc2n[nH]cc21 (centres unmarked) [Compound 947415] ... 5.30 to 6.00

I would be grateful if you could provide pIC50 for each of the following entries.
1. CCC1(c2cccc(-c3ccncn3)c2)C2=C(CC(C)(C)CC2=O)Nc2n[nH]cc21 (centres unmarked) [Compound 806637]
2. CC1(C)CC(=O)C2=C(C1)Nc1n[nH]cc1C2(C)c1cccc(-c2ccncc2)c1 (centres unmarked) [Compound 790730]
3. CCC1(c2cccc(-c3ccnc(C)c3)c2)C2=C(CC(C)(C)NC2=O)Nc2n[nH]c(C(F)F)c21 (centres unmarked) [Compound 949169]
4. CCC1(c2cccc(-c3cnn(C)c3)c2)C2=C(CC(C)CC2=O)Nc2n[nH]cc21 (centres unmarked) [Compound 823721]
5. CC[C@]1(c2cccc(-c3ccncc3F)c2)C2=C(CC(C)(C)NC2=O)Nc2n[nH]c(C)c21 [Compound 947805]
6. CCC1(c2cccc(N3CCCC3)c2)C2=C(CC(C)(C)CC2=O)Nc2n[nH]cc21 (centres unmarked) [Compound 801317]

["≥ 7.00", "≥ 7.00", "≥ 7.00", "≥ 7.00", "6.00 to 7.00", "6.00 to 7.00"]

###

- assayed.system: GSK3b (GST-full length GSK3b) (Homo sapiens (Human), UniProt P49841)
- Sequence (P49841 whole entry): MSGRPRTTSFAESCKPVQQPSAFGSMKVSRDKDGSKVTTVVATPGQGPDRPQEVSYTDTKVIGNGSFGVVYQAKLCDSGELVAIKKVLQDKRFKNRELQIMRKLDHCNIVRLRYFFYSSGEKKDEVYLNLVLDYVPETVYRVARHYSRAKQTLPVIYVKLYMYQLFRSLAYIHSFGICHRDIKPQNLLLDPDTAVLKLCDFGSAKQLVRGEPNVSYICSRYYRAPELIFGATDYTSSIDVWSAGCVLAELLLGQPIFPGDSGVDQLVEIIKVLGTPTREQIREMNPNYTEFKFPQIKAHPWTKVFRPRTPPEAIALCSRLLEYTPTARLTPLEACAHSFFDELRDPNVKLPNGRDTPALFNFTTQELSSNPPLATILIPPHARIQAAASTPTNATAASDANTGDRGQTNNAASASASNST
- method.summary: GSK3b TR-FRET kinase assay
- Assay type: biochemical
- experimental.context: 1 nM GSK3b, 2 μM ATP, 30 minute preincubation, Table 16; read-out: GSK3-B TR-FRET BIOCHEMICAL (TR-FRET); IC50
property.measured: IC50

1. CCC1(c2cc(N(C)C(C)=O)ccc2F)C2=C(CC(C)(C)CC2=O)Nc2n[nH]cc21 (centres unmarked) [Compound 913124] ... 100 to 1000 nM
2. CCC1(c2cccc(S(=O)(=O)CC)c2)C2=C(CC(C)(C)CC2=O)Nc2n[nH]cc21 (centres unmarked) [Compound 889579] ... ≤ 100 nM
3. CCC1(c2cccc(-c3cn(C)nc3C)c2)C2=C(CC(C)(C)CC2=O)Nc2n[nH]c(C)c21 (centres unmarked) [Compound 913034] ... > 5000 nM

Give one value of IC50 per listed molecule.
1. CC1(C)CC(=O)C2=C(C1)Nc1n[nH]cc1C21CN(C2CCCCC2)C1 [Compound 929446]
2. CC1(C)CC(=O)C2=C(C1)Nc1n[nH]cc1C21CN(Cc2ccccn2)C1 [Compound 929438]

["1000 to 5000 nM", "> 5000 nM"]
